Measured On: Abl(h) (Homo sapiens, UniProt P00519)
Sequence (P00519 whole entry): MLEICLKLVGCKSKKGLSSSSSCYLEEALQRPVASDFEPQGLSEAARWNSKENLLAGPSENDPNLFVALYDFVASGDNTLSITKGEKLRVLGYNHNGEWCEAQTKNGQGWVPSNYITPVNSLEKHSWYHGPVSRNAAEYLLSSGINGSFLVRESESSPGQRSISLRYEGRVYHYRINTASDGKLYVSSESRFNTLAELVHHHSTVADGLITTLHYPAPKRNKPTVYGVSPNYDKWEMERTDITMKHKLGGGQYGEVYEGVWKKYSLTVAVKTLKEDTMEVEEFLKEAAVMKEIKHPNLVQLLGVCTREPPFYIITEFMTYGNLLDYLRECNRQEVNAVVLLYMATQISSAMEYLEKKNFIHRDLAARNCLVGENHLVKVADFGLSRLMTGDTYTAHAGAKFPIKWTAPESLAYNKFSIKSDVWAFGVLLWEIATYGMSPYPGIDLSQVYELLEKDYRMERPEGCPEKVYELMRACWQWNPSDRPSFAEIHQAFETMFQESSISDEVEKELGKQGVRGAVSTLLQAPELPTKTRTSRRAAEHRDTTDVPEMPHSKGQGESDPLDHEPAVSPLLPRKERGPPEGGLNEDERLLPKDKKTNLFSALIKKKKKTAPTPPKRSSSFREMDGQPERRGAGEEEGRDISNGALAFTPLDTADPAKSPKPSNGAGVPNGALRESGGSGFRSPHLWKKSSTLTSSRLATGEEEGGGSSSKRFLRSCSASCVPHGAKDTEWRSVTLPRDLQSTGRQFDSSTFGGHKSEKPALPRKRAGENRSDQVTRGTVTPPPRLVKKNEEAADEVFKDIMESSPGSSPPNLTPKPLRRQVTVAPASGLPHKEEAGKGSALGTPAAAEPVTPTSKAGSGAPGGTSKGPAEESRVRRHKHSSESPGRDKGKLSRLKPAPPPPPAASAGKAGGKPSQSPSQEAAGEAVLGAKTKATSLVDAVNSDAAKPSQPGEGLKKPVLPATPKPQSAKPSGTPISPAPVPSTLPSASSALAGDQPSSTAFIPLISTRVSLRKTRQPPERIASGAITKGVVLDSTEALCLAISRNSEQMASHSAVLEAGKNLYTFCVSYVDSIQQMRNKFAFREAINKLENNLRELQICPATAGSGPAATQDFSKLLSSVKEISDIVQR
Experimental Protocol: Protein kinase selectivity panel
Assay type: biochemical
Recorded Conditions: 1.0 μM compound, 10 μM ATP
Attribute Measured: Activity at Protein Kinase Assays (% of control), Abl(h)

Q: Request body: readout Activity at Protein Kinase Assays (% of control), Abl(h), system Abl(h) (Homo sapiens, UniProt P00519), query CN(C)c1cc2cc(n1)CCCn1cc(c3ccccc31)C1=C(C(=O)NC1=O)c1cn(c3ccccc13)CCC2 . Return the value.
Result: 98 % of control

Q: Request body: readout Activity at Protein Kinase Assays (% of control), Abl(h), system Abl(h) (Homo sapiens, UniProt P00519), query CN(C)c1nc2ccc1CCCCn1cc(c3ccccc31)C1=C(C(=O)NC1=O)c1cn(c3ccccc13)CCC2 . Return the value.
Result: 105 % of control

Q: Request body: readout Activity at Protein Kinase Assays (% of control), Abl(h), system Abl(h) (Homo sapiens, UniProt P00519), query O=C1NC(=O)C2=C1c1cn(c3ccccc13)CCCc1ccc(c(N3CCCC3)n1)CCCn1cc2c2ccccc21 . Return the value.
Result: 108 % of control

Q: Request body: readout Activity at Protein Kinase Assays (% of control), Abl(h), system Abl(h) (Homo sapiens, UniProt P00519), query O=C1NC(=O)C2=C1c1cn(c3ccccc13)CCCc1cc(nc(N3CCCC3)c1)CCCn1cc2c2ccccc21 . Return the value.
Result: 107 % of control
